A compilation of published IC50 results with C-X-C chemokine receptor type 2 (Homo sapiens, UniProt P25025).
Sequence (P25025 whole entry): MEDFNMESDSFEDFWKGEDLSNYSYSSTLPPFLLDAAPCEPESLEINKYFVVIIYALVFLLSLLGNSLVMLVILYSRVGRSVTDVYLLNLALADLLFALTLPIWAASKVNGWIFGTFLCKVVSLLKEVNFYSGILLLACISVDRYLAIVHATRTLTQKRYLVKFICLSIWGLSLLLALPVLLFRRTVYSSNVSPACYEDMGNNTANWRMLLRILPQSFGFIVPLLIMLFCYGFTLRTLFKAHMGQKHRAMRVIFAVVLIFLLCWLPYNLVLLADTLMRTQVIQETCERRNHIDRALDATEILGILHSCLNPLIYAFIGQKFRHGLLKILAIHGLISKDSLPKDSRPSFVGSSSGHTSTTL
Define the label as Y when IC50 is strictly less than 20 nM and as N in all remaining cases.

Below are worked cases with known answers.
Molecule	Classification
CCOC(=O)CNC(=O)[C@@H]1C[C@H]1c1nc(SCc2cccc(F)c2F)nc(O)c1C#N (relative stereo)	N
CC[C@@H](Nc1c(Nc2ccc(Cl)c(S(=O)(=O)N(CC)OC)c2O)c(=O)c1=O)c1ccc(C)o1	Y
CCCC(CCC)Nc1c(Nc2ccc(Cl)c(S(=O)(=O)N(C)OC)c2O)c(=O)c1=O	N
CON(C)S(=O)(=O)c1c(Cl)ccc(Nc2c(NC(C)C)c(=O)c2=O)c1O	Y
CC[C@@H](Nc1c(Nc2ccc(Cl)c(S(=O)(=O)N(CC)OC)c2O)c(=O)c1=O)[C@H]1CCCO1	Y
CC[C@@H](Nc1c(Nc2cccc(S(=O)(=O)N(CC)OC)c2O)c(=O)c1=O)[C@@H]1CCCO1	N

Query block: Is the reported IC50 for "CCc1nc2nc(CSc3cccc(F)c3F)cc(O)n2n1" strictly below 20 nM?
Result block: N
